assay: recombinant UMI read abundance after kanamycin selection (control-corrected) (log10(CPM+1)); higher = more efficient recombination; extreme values may be limits of the assay; sequences stand for … in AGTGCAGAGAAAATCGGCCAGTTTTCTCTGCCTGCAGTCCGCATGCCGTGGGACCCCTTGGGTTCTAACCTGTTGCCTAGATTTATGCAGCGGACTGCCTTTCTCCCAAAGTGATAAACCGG…AGGTTGGTTTCACT; site = the 11-nt donor;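 also: IS621 bridge recombinase in Escherichia coli cells against a fixed T5 target plasmid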
Label rule, in plain words: recombinant UMI read abundance (log10) of 0.8 and up is class 1, under 0.8 is class 0.

CGGAAATCATGGACCGGTTTTCCCGGTAATCCGTATTTGCT (site CGGAAATCTAG) : class 1
GCGCAGCCATGGACCGGTTTTCCCGGTAATCCGTATTTGGG (site GCGGAGCCTCC) : class 0
GATTCTCCATGGACCGGTTTTCCCGGTAATCCGTATTTGCT (site GATTCTCCTAG) : class 0
ATGTAGGCATGGACCGGTTTTCCCGGTAATCCGTATTTGGC (site ATGTAGGCTGT) : class 1
GTCATGGCATGGACCGGTTTTCCCGGTAATCCGTATTTGAA (site GTCATGGCTTT) : class 1

Q: I'd appreciate it if you could say whether CCAAGTGCATGGACCGGTTTTCCCGGTAATCCGTATTTGAT (site CCAGGTGCTAT) has recombinant UMI read abundance (log10) at least equal to 0.8.
Ans: class 0

Q: I'd appreciate it if you could say whether AAGCACGCATGGACCGGTTTTCCCGGTAATCCGTATTTGGG (site CAGCACGCTCC) has recombinant UMI read abundance (log10) at least equal to 0.8.
Ans: class 0

Q: I'd appreciate it if you could say whether CGGGGACCATGGACCGGTTTTCCCGGTAATCCGTATTTGGG (site CGAGGACCTCC) has recombinant UMI read abundance (log10) at least equal to 0.8.
Ans: class 0

Q: I'd appreciate it if you could say whether GTGCATGCATGGACCGGTTTTCCCGGTAATCCGTATTTGGT (site ATGCATGCTAC) has recombinant UMI read abundance (log10) at least equal to 0.8.
Ans: class 1

Q: I'd appreciate it if you could say whether CCAAATCCATGGACCGGTTTTCCCGGTAATCCGTATTTGTT (site CGGAATCCTAA) has recombinant UMI read abundance (log10) at least equal to 0.8.
Ans: class 0
